# SYSTEM NAME: SHP2-C SH2;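 further: peptide library displayed on the E. coli surface as eCPX fusions, selected cells deep-sequenced, score is each peptide's frequency after selection divided by its frequency in the input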
# EXPERIMENT DESCRIPTION: SH2 binding enrichment of the phosphorylated peptide, bacterial display (enrichment ratio); higher = better substrate or ligand; peptides without Tyr show the background
Response key: YES means SH2 binding enrichment >= 0.8; NO means SH2 binding enrichment < 0.8.

{"CHAIN": "LNPDGYEKAYE [CPXM2_Y427]", "CLASSIFICATION": "NO"}
{"CHAIN": "KKMKCYHVGKV [HARS2_Y151_R150C]", "CLASSIFICATION": "YES"}
{"CHAIN": "QFLMKYVRSAS [ABCD1_Y337_W339R]", "CLASSIFICATION": "YES"}
{"CHAIN": "YRAPGYREVVI [TNS2_Y673]", "CLASSIFICATION": "YES"}
{"CHAIN": "ESMNIYLQTSP [NAT1_Y208_T207I]", "CLASSIFICATION": "NO"}
{"CHAIN": "RPLVVYPWTQR [HBB_Y36_L32P]", "CLASSIFICATION": "NO"}
{"CHAIN": "ETCLAYMEKRI [TEKT1_Y118_R119M]", "CLASSIFICATION": "NO"}
{"CHAIN": "SLQAHYDTPRS [DOK7_Y405_R402Q]", "CLASSIFICATION": "NO"}
{"CHAIN": "SEDANYKRVSC [TTC3_Y1288]", "CLASSIFICATION": "NO"}
{"CHAIN": "REEIKYMLWLS [OTC_Y55_G50R]", "CLASSIFICATION": "NO"}
{"CHAIN": "RASDFYSQQMA [GBP6_Y334_A331S_YF]", "CLASSIFICATION": "NO"}
{"CHAIN": "CKLFQYFLDHL [ATRX_Y1849_YF]", "CLASSIFICATION": "YES"}
{"CHAIN": "AEYGLYGAMVW [VSX2_Y222_R227W]", "CLASSIFICATION": "NO"}
{"CHAIN": "RAIDMYLMGCF [GABRB2_Y308_K303R]", "CLASSIFICATION": "NO"}
{"CHAIN": "LYSNAYLNDLA [ALDH1A1_Y119]", "CLASSIFICATION": "NO"}
{"CHAIN": "QNVADYMRCLM [RPL5_Y207_Y210C]", "CLASSIFICATION": "NO"}
{"CHAIN": "TVLEPYTDPFF [ZC3H18_Y367_A368T_YF]", "CLASSIFICATION": "NO"}
{"CHAIN": "CTTIHYHFMCN [TP53_Y234_N235H_YF]", "CLASSIFICATION": "YES"}
{"CHAIN": "CTNIHYNFMCN [TP53_Y234_T231N_YF]", "CLASSIFICATION": "YES"}
{"CHAIN": "AEEPIYIIVPA [BMXtide_2014]", "CLASSIFICATION": "YES"}
{"CHAIN": "QMIETYFDFRL [NSMF_Y506]", "CLASSIFICATION": "NO"}
{"CHAIN": "DRLAVYIDRVS [LMNA_Y45_R50S]", "CLASSIFICATION": "NO"}
{"CHAIN": "YAFQLYDLDRD [CHP2_Y123]", "CLASSIFICATION": "YES"}
{"CHAIN": "RSAGKDDVFLI [MECP2_Y120_Y120D_YF]", "CLASSIFICATION": "YES"}
{"CHAIN": "TSKLNYLDPRI [TOP1_Y723]", "CLASSIFICATION": "YES"}
{"CHAIN": "AFDNLYFWDQD [ERBB2_Y1221_YF]", "CLASSIFICATION": "NO"}
{"CHAIN": "FPLAEYTEVKT [ALDH1A3_Y497_A493P_YF]", "CLASSIFICATION": "YES"}
{"CHAIN": "VRTSKYRGGGG [HBA1_Y141_L137R]", "CLASSIFICATION": "NO"}
